# System: MCF7
# assay.info: Antiproliferative activity against human MCF7 cells after 72 hrs by MTT assay
# Assay type: functional, cell-based
# assay.conditions: MCF7, 72 h
measure: IC50 (µM)
Only the number, expressed in µM, is required.

Worked cases, IC50 given:
[[record]]
compound_string = "O=C(CCCCCOc1cccc(-c2nc(N3CCOCC3)c3sccc3n2)c1)NO"
tested_system = "MCF7"
display_unit = "µM"
value_reported = 9.9

[[record]]
compound_string = "O=C(CCCCCCOc1cccc(-c2nc(N3CCOCC3)c3sccc3n2)c1)NO"
tested_system = "MCF7"
display_unit = "µM"
value_reported = 4.8

[[record]]
compound_string = "O=C(CCCCCCCOc1cccc(-c2nc(N3CCOCC3)c3sccc3n2)c1)NO"
tested_system = "MCF7"
display_unit = "µM"
value_reported = 11

[[record]]
compound_string = "O=C(CCCCCCOc1ccc(-c2nc(N3CCOCC3)c3sccc3n2)cc1)NO"
tested_system = "MCF7"
display_unit = "µM"
value_reported = 5.2

[[record]]
compound_string = "O=C(CCCCCCCCOc1ccc(-c2nc(N3CCOCC3)c3sccc3n2)cc1)NO"
tested_system = "MCF7"
display_unit = "µM"
value_reported = 18


Now take the following compound into account.
Data point: O=C(CCCCCCCOc1ccc(-c2nc(N3CCOCC3)c3sccc3n2)cc1)NO ; IC50 = 10

Origin of the recorded values: ChEMBL document CHEMBL3097997
